- target: PfNMT (Plasmodium falciparum)
- Sequence (Q9U419 1-410): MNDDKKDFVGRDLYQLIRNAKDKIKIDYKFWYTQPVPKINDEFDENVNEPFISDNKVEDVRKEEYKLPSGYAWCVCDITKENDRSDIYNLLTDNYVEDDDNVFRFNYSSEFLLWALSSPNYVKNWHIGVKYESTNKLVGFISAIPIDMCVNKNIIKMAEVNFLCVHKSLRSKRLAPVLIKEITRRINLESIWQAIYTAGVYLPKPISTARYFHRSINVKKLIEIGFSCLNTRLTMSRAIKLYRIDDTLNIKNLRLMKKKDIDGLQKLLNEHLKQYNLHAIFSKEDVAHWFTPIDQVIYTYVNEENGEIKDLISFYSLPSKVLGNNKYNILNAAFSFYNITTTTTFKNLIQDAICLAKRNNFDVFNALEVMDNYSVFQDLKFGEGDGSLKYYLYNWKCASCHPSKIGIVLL
- method-summary: Fluorogenic NMT inhibition assay, PfNMT
- assay-context: recombinant enzyme; mean of duplicate or triplicate experiments
Square brackets hold non-standard residues; d marks the D form. Peptide text beside a SMILES is read from it. Aun = NCCCCCCCCCCC(=O)O; Aoc = NCCCCCCCC(=O)O
I'd be grateful if you could share measured IC50 for these entries.

I'd like to know its IC50. The compound in question is `NCCCCCCCCC(=O)N[C@@H](CO)C(=O)N[C@@H](CCCCN)C(N)=O`
> 100 µM

Entry `NCCCCCCCCCC(=O)N[C@@H](CO)C(=O)N[C@@H](CCCCN)C(N)=O` please
> 100 µM

Also `Cc1nccn1CCCCCCCCCCC(=O)N[C@@H](CO)C(=O)N[C@@H](CCCCN)C(=O)NCCC1CCCCC1` ?
> 100 µM

What about `NCCCC[C@H](NC(=O)[C@H](CO)NC(=O)CCCCCCCCCn1ccnc1)C(=O)NCCC1CCCCC1` ?
> 100 µM

And NCCCCCCCC(=O)N[C@@H](CO)C(=O)N[C@@H](CCCCN)C(N)=O [Compound 24] (H-[Aoc]-Ser-Lys-NH2) ?
> 100 µM

Please answer likewise for `CC(=O)N[C@@H](CO)C(=O)N[C@@H](CCCCN)C(=O)NCCC1CCCCC1`
> 100 µM

Note, next up: NCCCCCCCCCCC(=O)N[C@@H](CO)C(=O)N[C@@H](CCCCN)C(N)=O [Compound 21] (H-[Aun]-Ser-Lys-NH2)
> 100 µM

###

The following compounds each carry a recorded pIC50 for HsNMT1 (Homo sapiens, UniProt P30419).
pIC50: −log10 of the molar value. Square brackets hold non-standard residues; d marks the D form. Peptide text beside a SMILES is read from it. Aoc = NCCCCCCCC(=O)O

State the recorded pIC50 for this entry: NCCCCCCCCC(=O)N[C@@H](CO)C(=O)N[C@@H](CCCCN)C(=O)NCCC1CCCCC1 [Compound 11]
5.11

Queued: Cc1nccn1CCCCCCCCCCC(=O)N[C@@H](CO)C(=O)N[C@@H](CCCCN)C(=O)NCCC1=CCCCC1 [Compound 19]
< 4.00

Entry to check: NCCCCCCCC(=O)N[C@@H](CO)C(=O)N[C@@H](CCCCN)C(N)=O [Compound 24] (H-[Aoc]-Ser-Lys-NH2)
< 4.00

Here is the next compound: NCCCCCCCCCC(=O)N[C@@H](CO)C(=O)N[C@@H](CCCCN)C(=O)NCCC1CCCCC1 [Compound 10]
7.22

Let us now turn to NCCCC[C@H](NC(=O)[C@H](CO)NC(=O)CCCCCCCn1ccnc1)C(=O)NCCC1CCCCC1 [Compound 4]
< 4.00

One more compound: NCCCC[C@H](NC(=O)[C@H](CO)NC(=O)CCCCCCCCCn1ccnc1)C(=O)NCCC1=CCCCC1 [Compound 18]
< 4.00

Queued: Cc1nccn1CCCCCCCCCC(=O)N[C@@H](CO)C(=O)N[C@@H](CCCCN)C(=O)NCCC1=CCCCC1 [Compound 20]
< 4.00

Further, for NCCCCCCCCCCC(=O)N[C@@H](CO)C(=O)N[C@@H](CCCCN)C(=O)NCCC1=CCCCC1 [Compound 15] ?
5.64

Can you handle NCCCC[C@H](NC(=O)[C@H](CO)NC(=O)CCCCCCCCCCn1ccnc1)C(=O)NCCC1=CCCCC1 [Compound 17] next?
< 4.00
